biological target: Voltage-gated inwardly rectifying potassium channel KCNH2 (Homo sapiens, UniProt Q12809); type: functional; further: assay procedure not described here
Sequence (Q12809 whole entry): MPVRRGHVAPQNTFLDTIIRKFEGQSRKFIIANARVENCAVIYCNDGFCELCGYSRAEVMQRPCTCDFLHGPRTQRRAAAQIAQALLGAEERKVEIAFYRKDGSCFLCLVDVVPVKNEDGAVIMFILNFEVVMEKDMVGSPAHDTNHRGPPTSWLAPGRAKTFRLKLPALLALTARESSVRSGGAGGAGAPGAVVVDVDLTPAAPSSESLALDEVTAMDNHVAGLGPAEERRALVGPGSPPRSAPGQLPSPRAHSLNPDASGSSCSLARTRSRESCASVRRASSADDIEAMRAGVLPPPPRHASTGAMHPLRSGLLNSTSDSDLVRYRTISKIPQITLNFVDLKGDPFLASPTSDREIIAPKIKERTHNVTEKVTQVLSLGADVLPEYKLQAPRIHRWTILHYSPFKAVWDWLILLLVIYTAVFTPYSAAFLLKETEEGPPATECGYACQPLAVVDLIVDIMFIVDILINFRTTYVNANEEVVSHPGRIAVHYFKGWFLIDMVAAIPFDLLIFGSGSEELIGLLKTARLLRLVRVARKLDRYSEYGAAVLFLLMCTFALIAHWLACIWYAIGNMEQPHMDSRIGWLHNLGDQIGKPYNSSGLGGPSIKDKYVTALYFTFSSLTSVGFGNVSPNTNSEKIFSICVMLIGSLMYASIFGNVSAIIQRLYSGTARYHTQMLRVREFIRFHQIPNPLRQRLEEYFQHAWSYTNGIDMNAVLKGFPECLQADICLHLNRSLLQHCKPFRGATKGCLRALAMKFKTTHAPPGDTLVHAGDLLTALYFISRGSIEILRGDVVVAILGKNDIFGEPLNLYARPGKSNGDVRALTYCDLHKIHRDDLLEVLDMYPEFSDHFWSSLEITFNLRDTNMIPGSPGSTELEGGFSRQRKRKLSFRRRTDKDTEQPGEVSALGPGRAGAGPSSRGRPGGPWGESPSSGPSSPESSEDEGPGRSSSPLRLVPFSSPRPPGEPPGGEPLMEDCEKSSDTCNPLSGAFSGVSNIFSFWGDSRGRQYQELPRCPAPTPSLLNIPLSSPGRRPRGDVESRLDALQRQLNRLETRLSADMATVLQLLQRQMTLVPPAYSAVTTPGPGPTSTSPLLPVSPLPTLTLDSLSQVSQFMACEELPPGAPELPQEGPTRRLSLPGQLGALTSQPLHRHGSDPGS
Entries annotated with measured AC50
Reply numerically in µM, unit not repeated.

The following compounds have reported results that may help.
{"Compound": "CNCc1ccc(-c2[nH]c3cc(F)cc4c3c2CCNC4=O)cc1", "Reported Property": "AC50", "Numeric Readout": 14.1}
{"Compound": "Oc1ccc2c(c1)CC[C@H](c1ccccc1)[C@@H]2c1ccc(OCCN2CCCC2)cc1", "Reported Property": "AC50", "Numeric Readout": 0.73}
{"Compound": "CN1C[C@H](C(=O)N[C@]2(C)O[C@@]3(O)[C@@H]4CCCN4C(=O)[C@H](Cc4ccccc4)N3C2=O)C=C2c3cccc4[nH]cc(c34)C[C@H]21", "Reported Property": "AC50", "Numeric Readout": 14.4}

Req: Identify the reported AC50 for the following entry. COc1cc(N)c(Cl)cc1C(=O)NC1CCN(Cc2ccccc2)CC1 [CLEBOPRIDE]
Resp: 1.4
